- system_tested: PACAP-R3 (Homo sapiens, UniProt P41587)
- Sequence (P41587 24-438): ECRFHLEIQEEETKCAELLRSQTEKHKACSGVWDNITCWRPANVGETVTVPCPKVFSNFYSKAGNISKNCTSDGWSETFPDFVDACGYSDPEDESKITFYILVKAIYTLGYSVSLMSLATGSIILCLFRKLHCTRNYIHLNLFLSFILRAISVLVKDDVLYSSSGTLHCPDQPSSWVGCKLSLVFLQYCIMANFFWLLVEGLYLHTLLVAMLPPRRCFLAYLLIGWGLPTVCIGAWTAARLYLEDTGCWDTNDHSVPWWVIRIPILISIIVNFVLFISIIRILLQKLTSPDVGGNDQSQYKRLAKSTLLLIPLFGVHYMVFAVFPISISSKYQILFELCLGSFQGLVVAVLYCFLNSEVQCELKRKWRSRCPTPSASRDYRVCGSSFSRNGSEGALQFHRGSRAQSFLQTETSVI
- protocol_text: Cyclic AMP SPA on CHO cells expressing PACAP R3
- Type: cell-based
- Set-up: expressed in transfected cells; host or cells: CHO cells (Geneticin selection)
No end group written: not given here.
Measured pEC50, listed per entry.
Remember the convention: pEC50 equals -log10 of concentration in molar.

> print(dat)
                           ordered.residues  experimental.readout  measured.result
1  HSDAVFTENYTKLRKQLAAKKYLNDLKKGGT [Peptide R3P3]                 pEC50             9.12

API: the following record is the query input.
Return pEC50 for the following sequence: HSDAVFTDDYTRLRKEVAAKKYLESIKDKRY [Peptide R3P173] 6.70
